- tested-system: endothelin B (ETB) receptor (Sus scrofa)
- Sequence (P35463 27-443): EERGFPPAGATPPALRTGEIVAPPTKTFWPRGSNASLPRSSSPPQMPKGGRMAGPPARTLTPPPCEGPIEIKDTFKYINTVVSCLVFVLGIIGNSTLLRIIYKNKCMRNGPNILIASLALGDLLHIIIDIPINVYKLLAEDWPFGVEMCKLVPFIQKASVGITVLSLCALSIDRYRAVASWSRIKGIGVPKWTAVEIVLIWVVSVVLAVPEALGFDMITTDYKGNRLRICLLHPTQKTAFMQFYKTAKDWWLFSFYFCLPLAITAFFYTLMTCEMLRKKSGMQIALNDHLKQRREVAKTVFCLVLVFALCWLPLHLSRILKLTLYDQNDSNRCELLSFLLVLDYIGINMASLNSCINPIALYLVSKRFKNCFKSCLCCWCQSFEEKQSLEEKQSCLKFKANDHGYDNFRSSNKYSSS
Define the label as true (1) when IC50 is strictly less than 600 nM and as false (0) in all remaining cases.

For CC(C)Oc1ccc2c(c1)C(C1CCCC1)=C(C(=O)O)C(c1ccc3c(c1)OCO3)O2 (stereo not shown) [Compound I-79] , is the recorded IC50 below the cut-off of 600 nM? true (1)

Next: CCCOC1=C(C(=O)O)C(c2ccc3c(c2)OCO3)Oc2ccc(OC(C)C)cc21 (stereo not shown) [Compound I-56] false (0)

Field entry: CC(C)OC1=C(C(=O)O)C(c2ccc3c(c2)OCO3)Oc2ccc(OC(C)C)cc21 (stereo not shown) [Compound I-59] false (0)

Can you handle CCCCCOC1=C(C(=O)O)C(c2ccc3c(c2)OCO3)Oc2ccc(OC(C)C)cc21 (stereo not shown) [Compound I-58] next? true (1)

Next compound: CC(C)CCC1=C(C(=O)O)C(c2ccc3c(c2)OCO3)Oc2ccc(OC(C)C)cc21 (stereo not shown) [Compound I-83] true (1)

Now the same for CC(C)Oc1ccc2c(c1)C(OCCCCCO)=C(C(=O)O)C(c1ccc3c(c1)OCO3)O2 (stereo not shown) [Compound I-68] false (0)

###

- tested-system: endothelin A (ETA) receptor (Rattus norvegicus)
- Construct: smooth muscle A7r5 cells derived from rat aorta; endogenous in cells
- Sequence (P26684 21-426): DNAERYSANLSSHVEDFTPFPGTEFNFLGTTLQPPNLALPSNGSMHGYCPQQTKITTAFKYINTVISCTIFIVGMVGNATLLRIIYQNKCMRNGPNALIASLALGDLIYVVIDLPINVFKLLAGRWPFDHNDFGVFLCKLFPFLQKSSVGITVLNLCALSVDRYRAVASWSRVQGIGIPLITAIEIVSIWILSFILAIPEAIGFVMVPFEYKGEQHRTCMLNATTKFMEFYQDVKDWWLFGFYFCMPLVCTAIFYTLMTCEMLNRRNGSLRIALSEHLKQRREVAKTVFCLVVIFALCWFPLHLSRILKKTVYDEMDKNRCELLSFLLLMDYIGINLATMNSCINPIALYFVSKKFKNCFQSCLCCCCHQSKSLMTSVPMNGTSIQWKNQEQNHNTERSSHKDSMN
- assay-comment: Measurement of affinity for endothelin A (ETA) receptor: inhibition of 125I-labeled endothelin-1 binding to A7r5 cells
- conditions-used: 125I-endothelin-1 8.3 pM, A7r5 cells derived from rat aorta, 37° C., 1 h
reported-endpoint: pIC50
Remember, pIC50 is on a log scale: it is -log10 of the molar concentration.

What value of pIC50 has been recorded for this entry: COc1ccc(OC2=C(C(=O)O)C(c3ccc4c(c3)OCO4)Oc3ccc(OC(C)C)cc32)cc1 (stereo not shown) [Compound I-74] 9.68

Would you kindly repeat that for CCCCOC1=C(C(=O)O)C(c2ccc3c(c2)OCO3)Oc2ccc(OC(C)C)cc21 (stereo not shown) [Compound I-57] ? 9.39

Also, CC(C)OC1=C(C(=O)O)C(c2ccc3c(c2)OCO3)Oc2ccc(OC(C)C)cc21 (stereo not shown) [Compound I-59] please. 9.09

And for CCCCC1=C(C(=O)O)C(c2ccc3c(c2)OCO3)Oc2ccc(OC(C)C)cc21 (stereo not shown) [Compound I-76] ? 9.14

Further, for CCCCSC1=C(C(=O)O)C(c2ccc3c(c2)OCO3)Oc2ccc(OC(C)C)cc21 (stereo not shown) [Compound I-89] ? 9.57

Queued: COCCCC1=C(C(=O)O)C(c2ccc3c(c2)OCO3)Oc2ccc(OC(C)C)cc21 (stereo not shown) [Compound I-84] 8.74

Please give the result for CCCCCCOC1=C(C(=O)O)C(c2ccc3c(c2)OCO3)Oc2ccc(OC(C)C)cc21 (stereo not shown) [Compound I-67] too. 9.17

COc1ccc(CC2=C(C(=O)O)C(c3ccc4c(c3)OCO4)Oc3ccc(OC(C)C)cc32)cc1 (stereo not shown) [Compound I-81] , same question. 9.30

Same question, C=CCCC1=C(C(=O)O)C(c2ccc3c(c2)OCO3)Oc2ccc(OC(C)C)cc21 (stereo not shown) [Compound I-86] this time 8.57

Same thing, different compound: CCCCCC1=C(C(=O)O)C(c2ccc3c(c2)OCO3)Oc2ccc(OC(C)C)cc21 (stereo not shown) [Compound I-77] 9.49

CC(C)Oc1ccc2c(c1)C(OCCCCCO)=C(C(=O)O)C(c1ccc3c(c1)OCO3)O2 (stereo not shown) [Compound I-68] , same question. 9.02

And CC(C)Oc1ccc2c(c1)C(CCCCO)=C(C(=O)O)C(c1ccc3c(c1)OCO3)O2 (stereo not shown) [Compound I-87] ? 8.64

Moving on to the next compound: COC(CCCOC1=C(C(=O)O)C(c2ccc3c(c2)OCO3)Oc2ccc(OC(C)C)cc21)OC (stereo not shown) [Compound I-70] 8.92

Also check CCCCCCC1=C(C(=O)O)C(c2ccc3c(c2)OCO3)Oc2ccc(OC(C)C)cc21 (stereo not shown) [Compound I-82] 9.21

# repeat for CC(C)Oc1ccc2c(c1)C(C1CCCC1)=C(C(=O)O)C(c1ccc3c(c1)OCO3)O2 (stereo not shown) [Compound I-79] 9.28

Follow-up item: CCCCCOC1=C(C(=O)O)C(c2ccc3c(c2)OCO3)Oc2ccc(OC(C)C)cc21 (stereo not shown) [Compound I-58] 9.32

###

- tested-system: endothelin A (ETA) receptor (Rattus norvegicus)
- Construct: smooth muscle A7r5 cells derived from rat aorta; endogenous in cells
- assay-comment: Measurement of affinity for endothelin A (ETA) receptor: inhibition of 125I-labeled endothelin-1 binding to A7r5 cells
- conditions-used: 125I-endothelin-1 8.3 pM, A7r5 cells derived from rat aorta, 37° C., 1 h
Please note: IC50 exactly at 1 nM is 0. Only values below 1 nM get 1.

IC50 under 1 nM? Item: CCCOC1=C(C(=O)O)C(c2ccc3c(c2)OCO3)Oc2ccc(OC(C)C)cc21 (stereo not shown) [Compound I-56] 0

Lookup COc1ccc(C2=C(C(=O)O)C(c3ccc4c(c3)OCO4)Oc3ccc(OC(C)C)cc32)cc1 (stereo not shown) [Compound I-36] 1

Do the same for C=CCCCOC1=C(C(=O)O)C(c2ccc3c(c2)OCO3)Oc2ccc(OC(C)C)cc21 (stereo not shown) [Compound I-65] please 1

Now give it for CC(C)Oc1ccc2c(c1)C(CC1CCCCC1)=C(C(=O)O)C(c1ccc3c(c1)OCO3)O2 (stereo not shown) [Compound I-85] too. 1

Subsequent entry: CC(C)Oc1ccc2c(c1)C(C(C)C)=C(C(=O)O)C(c1ccc3c(c1)OCO3)O2 (stereo not shown) [Compound I-78] 1

Repeat with CC(C)CCC1=C(C(=O)O)C(c2ccc3c(c2)OCO3)Oc2ccc(OC(C)C)cc21 (stereo not shown) [Compound I-83] 0

###

Measured IC50 on UniProt:P35463 follows.
Please state the figure in nM; there is no need to write the unit.

// returns reported IC50 for input COc1ccc(CC2=C(C(=O)O)C(c3ccc4c(c3)OCO4)Oc3ccc(OC(C)C)cc32)cc1 (stereo not shown) 85

Let us now turn to C=CCCCOC1=C(C(=O)O)C(c2ccc3c(c2)OCO3)Oc2ccc(OC(C)C)cc21 (stereo not shown) 130

Note, next up: COc1ccc(OC2=C(C(=O)O)C(c3ccc4c(c3)OCO4)Oc3ccc(OC(C)C)cc32)cc1 (stereo not shown) 58

Try this compound next: CCCCCCOC1=C(C(=O)O)C(c2ccc3c(c2)OCO3)Oc2ccc(OC(C)C)cc21 (stereo not shown) 78
